Data credit: patent US7718768B2

Kindly state anti-SRBC antibody formation (sample serum index) for each of the entries shown.
Test system: anti-SRBC antibody
Measurement protocol: Sheep Red Blood Cell (SRBC) hemolysis test, anti-SRBC antibody formation
Format: in vivo, BALB/c mice
Experimental conditions: peptide 0.5 μg/kg/day i.p. 15 days, SRBC on day 12; IFN-γ and IL-2 groups 3×10^5 IU/kg/day; X ± SD
Marks after values point to notes of the source that are not given here. No end group written: not given here.

**Query** Tell me its anti-SRBC antibody formation (sample serum index) given LRVAPEEHPVL [CMS013] as the entry.
**Result** 7 ± 1* Unit

**Query** For VGMGQKDSYV [CMS020] , write its anti-SRBC antibody formation (sample serum index).
**Result** 10 ± 3* Unit

**Query** Recall and state the measured anti-SRBC antibody formation (sample serum index) for FNFVPP [CMS003] .
**Result** 2 ± 1* Unit
